2-AG accumulation, percent of vehicle control at 1 µM values for the compounds below.
Target: MGL (Rattus norvegicus, UniProt Q8R431)
Construct: one g rat brain was homogenized; from tissue; host or cells: rat brain homogenate
Sequence (Q8R431 1-303): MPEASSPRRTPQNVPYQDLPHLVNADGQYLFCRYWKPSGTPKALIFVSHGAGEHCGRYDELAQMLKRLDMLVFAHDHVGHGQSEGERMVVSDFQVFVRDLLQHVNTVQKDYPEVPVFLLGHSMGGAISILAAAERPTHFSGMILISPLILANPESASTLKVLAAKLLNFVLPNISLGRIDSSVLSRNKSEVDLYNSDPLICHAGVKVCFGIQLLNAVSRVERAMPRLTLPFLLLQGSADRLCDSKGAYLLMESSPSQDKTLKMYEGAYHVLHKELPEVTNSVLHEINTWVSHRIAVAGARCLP
Assay: 2-AG accumulation assay in rat brain homogenate
Type: biochemical
Conditions: compound @1 μM, read-out: Rat Brain 2AG % VehCntrl (%) @1 μM
Give just the numeric value; % need not be written.

Observe how each entry below is paired with its result.
Request: Name the recorded 2-AG accumulation, percent of vehicle control at 1 µM of the item `O=C(c1ccc2c(ccn2-c2ccc(C(F)(F)F)cc2)c1)N1CC(C2CCN(C(=O)c3ccc[nH]3)CC2)C1` in your answer.
Result: 611

Request: Using the record for `O=C(c1ccc(Cc2ccc(C(F)(F)F)cc2)cc1)N1CC(C2CCN(C(=O)c3nccs3)CC2)C1` , state its measured 2-AG accumulation, percent of vehicle control at 1 µM.
Result: 634

Request: Read off the recorded 2-AG accumulation, percent of vehicle control at 1 µM for `O=C(c1ccc(Cc2cccc(C(F)(F)F)c2)cc1)N1CCC(C2CN(C(=O)c3ccc[nH]3)C2)CC1`
Result: 346

More entries:
Request: // fetch 2-AG accumulation, percent of vehicle control at 1 µM given entry `O=C(c1ccc2c(ccn2-c2ccc(F)cc2)c1)N1CCC(C2CN(C(=O)c3cscn3)C2)CC1`
Result: 875

Request: Determine from records and report 2-AG accumulation, percent of vehicle control at 1 µM for `Cc1c(C(=O)N2CCC(C3CN(C(=O)c4ccc[nH]4)C3)CC2)sc2cc(C(F)(F)F)ccc12`
Result: 422

Request: // Input: `O=C(c1ccc(-c2ccc(C(F)(F)F)s2)cc1)N1CC(C2CCN(C(=O)c3cscn3)CC2)C1` . Output its 2-AG accumulation, percent of vehicle control at 1 µM only.
Result: 134
